target: recombinant human serotonin receptor 5-HT2A (Homo sapiens, UniProt P28223); construct: expressed in transfected cells; method B: loaded with Ca2+ dye; experiment: 5-HT2A antagonist Ca2+ assay in CHO-K1 cells (method A aequorin luminescence / method B FLIPR fluorescence); format: cell-based; details: antagonist mode vs EC80 of reference agonist, method A or B, read-out: 5HT2A IC50
Sequence (P28223 whole entry): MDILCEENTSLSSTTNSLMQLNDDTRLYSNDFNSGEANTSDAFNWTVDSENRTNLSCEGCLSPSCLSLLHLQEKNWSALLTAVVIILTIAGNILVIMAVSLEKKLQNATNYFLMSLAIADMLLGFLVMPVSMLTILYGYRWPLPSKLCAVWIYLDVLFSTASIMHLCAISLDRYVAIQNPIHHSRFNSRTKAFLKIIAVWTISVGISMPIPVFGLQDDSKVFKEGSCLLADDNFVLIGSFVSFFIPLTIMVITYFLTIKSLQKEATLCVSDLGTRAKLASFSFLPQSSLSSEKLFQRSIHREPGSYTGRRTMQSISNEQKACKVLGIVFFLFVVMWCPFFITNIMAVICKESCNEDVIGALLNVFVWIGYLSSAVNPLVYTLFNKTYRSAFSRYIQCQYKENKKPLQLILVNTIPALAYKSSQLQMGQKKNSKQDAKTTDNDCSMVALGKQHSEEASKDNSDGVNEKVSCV
Known pIC50 of a selection of compounds
Scale for pIC50: -log10 of concentration given in mol/L; no unit attached.

Give the measured pIC50 for OC(CO[C@@H]1CCc2ccccc21)CN1CCC(Oc2ccc(F)cc2)CC1 (stereo partly drawn) 6.46

Give the measured pIC50 for OC(COC1CCCCC1)CN1C[C@@H]2CC[C@H]1CN2c1ccccc1 (stereo partly drawn) 6.31

Give the measured pIC50 for COc1cccc(O[C@H]2CCN(CC(O)CO[C@@H]3CCc4ccccc43)C2)c1 (stereo partly drawn) 5.15

Give the measured pIC50 for O[C@@H](COC1CCCCC1)CN1CCC[C@H](Oc2ccc(F)cc2)C1 5.66

Give the measured pIC50 for Fc1ccc(O[C@H]2CCN(CC3CCc4ncccc43)C2)cc1 (stereo partly drawn) 5.84

Give the measured pIC50 for O=C1c2ccccc2CCN1CCCN1CCC(Oc2cccnc2)CC1 6.31

Give the measured pIC50 for COCc1cccc(OC2CCN(CC3CCc4ccc(OC)cc43)CC2)c1 (stereo not drawn) 6.68

Give the measured pIC50 for O[C@@H](COC1CCCCC1)CN1C[C@@H]2C[C@H]1CN2Cc1ccccc1 5.40

Give the measured pIC50 for OC(COC1COCc2ccccc21)CN1CCC(Oc2ccccc2)CC1 (stereo not drawn) 5.45

----------
target: UniProtKB Q99250; test: NaV1.2 inhibition, automated patch-clamp (Q-Patch HTX), slow inactivated state (state C); assay type: cell-based; conditions: reference compound, Test 4; read-out: IC50 (μM) for NaV1.2 slow inactivated state, Test 4
measure: IC50
Write the numeric value and append its unit.

Give the measured IC50 for CN1CCN(c2ncc(-c3cc(Cl)cc(Cl)c3Cl)c(N)n2)CC1 0.5 µM

----------
molecular target: human sodium channel NaV1.2 (Homo sapiens); assay: NaV1.2 inhibition, automated patch-clamp (Q-Patch HTX), slow inactivated state (state C); type: cell-based; details: hNaV1.2 CHO cells, slow inactivated state; read-out: NaV1.2 IC50
Sequence (Q99250 whole entry): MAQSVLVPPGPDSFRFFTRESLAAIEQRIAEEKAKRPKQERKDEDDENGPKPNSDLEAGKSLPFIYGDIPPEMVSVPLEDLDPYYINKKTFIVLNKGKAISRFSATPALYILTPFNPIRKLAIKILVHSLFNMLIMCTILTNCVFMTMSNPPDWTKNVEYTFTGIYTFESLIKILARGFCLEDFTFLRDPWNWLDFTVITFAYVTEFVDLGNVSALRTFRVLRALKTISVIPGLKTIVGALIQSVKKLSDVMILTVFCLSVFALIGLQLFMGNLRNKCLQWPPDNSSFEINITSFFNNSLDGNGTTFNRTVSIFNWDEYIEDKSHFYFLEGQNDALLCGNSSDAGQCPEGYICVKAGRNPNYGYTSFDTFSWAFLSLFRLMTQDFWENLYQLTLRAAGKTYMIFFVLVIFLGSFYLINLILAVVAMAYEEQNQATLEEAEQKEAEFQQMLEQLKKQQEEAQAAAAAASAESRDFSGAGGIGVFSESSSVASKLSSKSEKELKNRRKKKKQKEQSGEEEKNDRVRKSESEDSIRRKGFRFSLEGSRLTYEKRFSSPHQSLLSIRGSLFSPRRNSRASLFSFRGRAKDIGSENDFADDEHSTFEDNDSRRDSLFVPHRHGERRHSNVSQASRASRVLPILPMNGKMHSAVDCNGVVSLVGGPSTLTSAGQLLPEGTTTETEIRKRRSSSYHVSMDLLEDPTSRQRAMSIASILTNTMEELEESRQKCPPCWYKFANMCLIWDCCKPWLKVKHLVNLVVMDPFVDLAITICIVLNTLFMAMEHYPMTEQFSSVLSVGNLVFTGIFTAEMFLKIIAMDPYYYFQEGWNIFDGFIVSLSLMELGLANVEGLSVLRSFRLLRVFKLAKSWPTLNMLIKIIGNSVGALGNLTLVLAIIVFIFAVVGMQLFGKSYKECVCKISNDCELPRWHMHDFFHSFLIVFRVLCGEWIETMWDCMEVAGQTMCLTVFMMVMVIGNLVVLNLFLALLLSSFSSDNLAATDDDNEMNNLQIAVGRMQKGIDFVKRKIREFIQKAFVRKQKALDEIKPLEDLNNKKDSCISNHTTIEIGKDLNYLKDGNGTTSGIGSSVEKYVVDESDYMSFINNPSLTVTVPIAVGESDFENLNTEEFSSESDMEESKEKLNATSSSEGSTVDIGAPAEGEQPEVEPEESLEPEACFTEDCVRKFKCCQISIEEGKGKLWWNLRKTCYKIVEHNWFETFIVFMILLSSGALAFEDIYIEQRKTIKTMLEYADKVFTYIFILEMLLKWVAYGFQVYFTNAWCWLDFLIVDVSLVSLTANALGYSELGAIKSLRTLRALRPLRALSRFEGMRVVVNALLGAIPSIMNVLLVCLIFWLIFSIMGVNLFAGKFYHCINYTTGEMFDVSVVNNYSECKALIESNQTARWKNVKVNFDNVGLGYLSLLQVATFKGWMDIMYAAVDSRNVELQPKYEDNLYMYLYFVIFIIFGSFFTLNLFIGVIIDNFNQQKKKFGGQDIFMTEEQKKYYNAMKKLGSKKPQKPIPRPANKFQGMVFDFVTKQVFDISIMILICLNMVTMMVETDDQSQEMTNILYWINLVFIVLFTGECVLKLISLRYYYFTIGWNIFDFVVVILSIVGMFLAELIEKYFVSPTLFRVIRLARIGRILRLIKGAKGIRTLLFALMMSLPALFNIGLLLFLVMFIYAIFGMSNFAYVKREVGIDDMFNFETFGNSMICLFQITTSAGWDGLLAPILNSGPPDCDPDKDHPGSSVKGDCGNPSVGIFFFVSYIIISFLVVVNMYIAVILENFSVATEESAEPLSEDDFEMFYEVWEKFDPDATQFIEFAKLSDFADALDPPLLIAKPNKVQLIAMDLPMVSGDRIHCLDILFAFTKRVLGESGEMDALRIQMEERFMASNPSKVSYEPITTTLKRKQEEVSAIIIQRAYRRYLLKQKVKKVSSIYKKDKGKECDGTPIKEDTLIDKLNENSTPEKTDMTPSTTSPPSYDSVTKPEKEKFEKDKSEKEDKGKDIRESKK
pIC50: −log10 of the molar value.
The threshold is inclusive: pIC50 of exactly 6 counts as fulfilled; values below receive not fulfilled.

// known answers, use as guide
compound: c1ccc2c(c1)COC1(CCN(CC3CCc4ccccc43)CC1)C2 (centres unmarked)
tested-on: human sodium channel NaV1.2 (Homo sapiens)
classification: not fulfilled
--
compound: c1ccc(N2C[C@@H]3C[C@H]2CN3CC2CCc3ccccc32)cc1 (some centres unmarked)
tested-on: human sodium channel NaV1.2 (Homo sapiens)
classification: not fulfilled

Decide: pIC50 of c1ccc2c(c1)CC(CN1CCC3(CCc4ccccc4O3)CC1)C2 >= 6? fulfilled

----------
Known IC50 of a selection of compounds
target: human sodium channel NaV1.2 (Homo sapiens); assay: NaV1.2 inhibition, automated patch-clamp (Q-Patch HTX), slow inactivated state (state C); type: cell-based; conditions: hNaV1.2 CHO cells, slow inactivated state; read-out: NaV1.2 IC50
Write the answer as a number in µM, unit excluded.

compound: COc1ccc2c(c1)C(CN1CCC3(CCc4ccccc4O3)CC1)CC2 (stereo not drawn)
tested-on: human sodium channel NaV1.2 (Homo sapiens)
IC50 (µM): 0.07

compound: c1ccc([C@@H]2COC3(CCN(C[C@@H]4CCc5ccccc54)CC3)C2)cc1 (single isomer, unassigned)
tested-on: human sodium channel NaV1.2 (Homo sapiens)
IC50 (µM): 0.51

compound: OC(COC1CCCCc2ccccc21)CN1CCC(Oc2ccccc2)CC1 (stereo not drawn)
tested-on: human sodium channel NaV1.2 (Homo sapiens)
IC50 (µM): 0.96

Give the measured IC50 for O=C1CCC(c2ccc(F)cc2)=NN1CN1CCN(c2cccc(Cl)c2)CC1 5.27

Give the measured IC50 for CC(=O)Nc1ccc(OCC(O)CN2CCN(c3ccc(C)c(Cl)c3)CC2)cc1 (stereo not drawn) 59.5

Give the measured IC50 for CCC(=O)c1ccc(OCC(O)CN2CCN(c3ccccc3)CC2)cc1 (stereo not drawn) 31.2

Give the measured IC50 for Fc1ccc(COC2CCN(CC3CCOc4ccccc43)CC2)cc1 (stereo not drawn) 0.63

----------
Known pIC50 of a selection of molecules
target: recombinant human serotonin receptor 5-HT2A (Homo sapiens, UniProt P28223); construct: expressed in transfected cells; method B: loaded with Ca2+ dye; assay: 5-HT2A antagonist Ca2+ assay in CHO-K1 cells (method A aequorin luminescence / method B FLIPR fluorescence); type: cell-based; details: antagonist mode vs EC80 of reference agonist, method A or B, read-out: 5HT2A IC50
Scale for pIC50: -log10 of concentration given in mol/L; no unit attached.

Reference set (5 entries):
molecule: Cc1cccc(N2CCN(CC3(O)COCc4ccccc43)CC2)c1C (stereo not shown)
pIC50: 6.89

molecule: COc1ccccc1N1CCN(CC(O)COc2cccc3ccccc23)CC1 (stereo not shown)
pIC50: 6.64

molecule: OC(CO[C@H]1CCc2ccccc21)CN1CC[C@H](Oc2ccc(F)cc2)C1 (stereo partly shown)
pIC50: 5.68

molecule: CC1(C)Oc2ccccc2C1CN1CCC(Oc2ccccc2)CC1 (stereo not shown)
pIC50: 6.54

molecule: OC(COC1CCCCC1)CN1CCC2(CCc3ccccc3O2)CC1 (stereo not shown)
pIC50: 7.70

Give the measured pIC50 for COc1ccc(OC2CCN(CCN3CCc4ccccc4C3=O)CC2)cc1 6.76

Give the measured pIC50 for OC(COC1CCCCC1)CN1CCC2(CCCN2c2ccccc2)C1 (stereo not shown) 5.13

Give the measured pIC50 for O[C@H](COC1CCCCC1)CN1CC2(CC(Oc3ccccc3)CO2)C1 (stereo partly shown) 7.05

Give the measured pIC50 for C1=C(c2ccccc2)COC12CN(CC1CCc3ccccc31)C2 (stereo not shown) 6.06

Give the measured pIC50 for C[C@@H]1C[C@@]2(CCc3ccccc3O2)CCN1CCO[C@H]1CCc2ccccc21 6.14

Give the measured pIC50 for Fc1ccc(N2CCC3(CCN(CC4Cc5cccnc5C4)C3)C2)cc1 (stereo not shown) 6.06

Give the measured pIC50 for Fc1ccc(N2CCC3(CCN(CC4CCc5cccnc54)C3)C2)cc1 (stereo not shown) 6.35

Give the measured pIC50 for N#Cc1ccccc1OC1CCN(CC2Cc3cccnc3C2)CC1 (stereo not shown) 6.89

Give the measured pIC50 for O=C1c2cc(Cl)ccc2CCCN1CCN1CCC(Oc2ccc(F)cc2)CC1 7.70

Give the measured pIC50 for O=C1c2ccccc2CCN1CCN1CCC[C@@H](Oc2ccc(F)cc2)C1 6.03

Give the measured pIC50 for O=C1c2ccccc2CCN1CCN1CCC(Oc2cccnc2)CC1 5.55

Give the measured pIC50 for O[C@H](CO[C@@H]1CCc2ccccc21)CN1CC[C@@H](Oc2ccc(F)cc2)C1 7.52

Give the measured pIC50 for OC(CO[C@@H]1CCc2ccccc21)CN1CC[C@H](Oc2ccc(F)cc2)C1 (stereo partly shown) 6.21

Give the measured pIC50 for Fc1ccc(OC2CCN(CC3Cc4ccccc4C3)CC2)cc1 6.77

Give the measured pIC50 for COc1cccc(CCN2CCC3(CCc4ccccc4O3)CC2)c1 6.43

Give the measured pIC50 for O[C@@H](COC1CCCCC1)CN1CC2(CC(c3ccccc3)CO2)C1 (stereo partly shown) 7.70

Give the measured pIC50 for c1ccc2c(c1)CCC1(CCN(CC3CCc4ncccc43)CC1)O2 (stereo not shown) 5.44

Give the measured pIC50 for O=C1c2ccccc2CCN1CCN1CC[C@H](Oc2ccccn2)C1 5.73

----------
molecular target: recombinant human serotonin receptor 5-HT2A (Homo sapiens); construct: expressed in transfected cells; method B: loaded with Ca2+ dye; test: 5-HT2A antagonist Ca2+ assay in CHO-K1 cells (method A aequorin luminescence / method B FLIPR fluorescence); type: cell-based; details: antagonist mode vs EC80 of reference agonist, method A or B, read-out: 5HT2A IC50
Known log10 IC50 of a selection of molecules
Scale type: logarithmic (base 10). Underlying IC50 unit: nM.

Reference set (8 entries):
molecule: COc1ccccc1O[C@@H]1CCN(CCN2CCc3ccccc3C2=O)[C@H]1C [Example 17]
value-observed: 2.60
//
molecule: Cc1cccc(N2CCN(CC(O)COC3COc4cccnc43)CC2)c1C (stereo not drawn) [Example 82]
value-observed: 1.60
//
molecule: Fc1ccc(O[C@@H]2CCN(CC3CCc4cnccc43)C2)cc1 (stereo partly drawn) [Example 1]
value-observed: 3.36
//
molecule: COc1cccc(OCCN2CCN(c3nsc4ccccc34)CC2)c1 [Example 68]
value-observed: 0.60
//
molecule: O[C@@H](COc1ccccc1)CN1CCC2(CCc3ccccc3O2)CC1 [Example 441]
value-observed: 1.48
//
molecule: Clc1cccc(N2CCN(Cn3c(COc4ccccc4)nc4ccccc43)CC2)c1 [Example 61]
value-observed: 2.30
//
molecule: COc1ccccc1OC1CCN(CC2CCc3cc(C#N)ccc32)CC1 (stereo not drawn) [Example 99]
value-observed: 2.65
//
molecule: c1ccc(N2CCN(CC3CCc4ccccc43)CC2)cc1 (stereo not drawn) [Example 55]
value-observed: 1.00

Give the measured log10 IC50 for Cc1cccc(N2CCN(CC3(O)CCOc4ccccc43)CC2)c1C (stereo not drawn) [Example 58] 2.69
